endpointLabel: melting point

Worked cases, answers included:
compound: CC(=O)c1ccc(N2CCN(CCCCN3C(=O)NC4(CCc5ccccc54)C3=O)CC2)cc1 (racemic) [Compound 1]
melting point: 180.2 to 181.3 °C
--
compound: CC(=O)c1ccc(N2CCN(CCCCN3C(=O)NC4(Cc5ccccc5C4)C3=O)CC2)cc1 [Compound 5]
melting point: 213.8 to 214.9 °C
--
compound: CC(=O)c1ccc(N2CCN(CCCCCN3C(=O)NC4(Cc5ccccc5C4)C3=O)CC2)cc1 [Compound 6]
melting point: 157.4 to 157.7 °C

Problem: I would be grateful if you could share the reported melting point for CC(=O)c1ccc(N2CCN(CCCCCN3C(=O)NC4(CCc5ccccc54)C3=O)CC2)cc1 (racemic) [Compound 2] .
Result: 155.3 to 156.2 °C

Value source: paper PMC8347464
